- test system: RARγ (Homo sapiens)
- Construct: gal4 (fusion partner); expressed in transfected cells; host or cells: COS-7
- Sequence (P13631 185-419 limits assumed, species assumed): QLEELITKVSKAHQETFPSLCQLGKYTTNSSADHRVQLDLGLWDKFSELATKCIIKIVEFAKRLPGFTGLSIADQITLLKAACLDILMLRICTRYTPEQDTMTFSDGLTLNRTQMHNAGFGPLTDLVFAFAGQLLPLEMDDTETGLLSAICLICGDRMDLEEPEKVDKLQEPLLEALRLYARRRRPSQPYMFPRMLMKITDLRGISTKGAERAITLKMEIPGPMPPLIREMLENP
- test method notes: Transactivation assay for RAR gamma (gal4-RAR fusion, luciferase reporter, COS-7 cells)
- Type: cell-based
- conditions used: ratio of test compound EC50 to that of atRA; inactive = no agonist action at the highest concentration tested
Attribute: RARγ activity ratio
# output: bare number, no unit

{"smiles code": "Cc1cc(NC(=O)c2cc(Cl)c(OC3CCC3)c(OC3CCC3)c2)ccc1C(=O)O", "test system": "RARγ (Homo sapiens)", "measured result": 10833}

Q: Entry CCOc1c(Cl)cc(C(=O)Nc2ccc(C(=O)O)c(C)c2)cc1OC(C)C : reported RARγ activity ratio = ?
A: 17460

Q: # input compound: CCOc1c(Cl)cc(C(=O)Nc2ccc(C(=O)O)c(C)c2)cc1OCC1CC1 ; wanted: its RARγ activity ratio
A: 100000

Q: Give its RARγ activity ratio value. Item: COc1cc(C(=O)Nc2ccc(C(=O)O)cc2)cc(Cl)c1OC(C)C
A: 4390
